Listed compounds paired with reported combination Emax
test system: SISO (Cervical Carcinoma); assay: combination Emax (second highest fraction inhibited in the dose matrix, 72 h); higher = more inhibition; extreme values may be limits of the assay

In the examples that follow, each entry is paired with its recorded combination Emax.
INSERT INTO assay_data (compound, reading) VALUES
  ('CC(=O)c1c(C)c2cnc(Nc3ccc(N4CCNCC4)cn3)nc2n(C2CCCC2)c1=O [Palbociclib] + Cc1c2c(nn1C)CSCc1cc(n(C)n1)CSc1cc(c3ccccc3c1)OCCCc1c(C(=O)O)n(C)c3c-2c(Cl)ccc13 [AZD5991] (first compound max 10 µM, 7x7, partner max 1 µM)', 0.127),
  ('CN(CCO)CC[C@H](CSc1ccccc1)Nc1ccc(S(=O)(=O)NC(=O)c2ccc(N3CCC([C@@H](O)c4ccccc4-c4ccc(Cl)cc4)CC3)cc2)cc1S(=O)(=O)C(F)(F)F [AZD4320] + C[C@@H]1COCCN1C2=NC(=NC(=C2)C3(CC3)[S@](=N)(=O)C)C4=C5C=CNC5=NC=C4 [AZD6738] (first compound max 1 µM, 7x7, partner max 10 µM)', 0.681),
  ('Cc1c2c(nn1C)CSCc1cc(n(C)n1)CSc1cc(c3ccccc3c1)OCCCc1c(C(=O)O)n(C)c3c-2c(Cl)ccc13 [AZD5991] + C=CCn1c(=O)c2cnc(Nc3ccc(N4CCN(C)CC4)cc3)nc2n1-c1cccc(C(C)(C)O)n1 [AZD1775] (first compound max 1 µM, partner max 1 µM)', 0.663),
  ('COc1cccc(OCCCN)c1-c1cc(Nc2cnc(C#N)cn2)n[nH]1 [Prexasertib] + C[C@@H]1COCCN1C2=NC(=NC(=C2)C3(CC3)[S@](=N)(=O)C)C4=C5C=CNC5=NC=C4 [AZD6738] (first compound max 1 µM, 7x7, partner max 10 µM)', 0.798);

Given the compound COc1cccc(OCCCN)c1-c1cc(Nc2cnc(C#N)cn2)n[nH]1 [Prexasertib] + CN(C)CCCOc1ccc(-c2ccc3ncc4c(c3c2)n(C2CCOCC2)c(=O)n4C)cn1 [AZD0156] (first compound max 1 µM, 7x7, partner max 1 µM) and test system SISO (Cervical Carcinoma), the measured combination Emax is 0.745

Given the compound NC1(C(=O)N[C@@H](CCO)c2ccc(Cl)cc2)CCN(c2ncnc3[nH]ccc23)CC1 [Capivasertib] + COc1nnc2ccc(N3CCC(c4ccc(OCCN5CCN(C)C(=O)[C@H]5C)cc4)CC3)nn12 [AZD5153] (first compound max 10 µM, 7x7, partner max 1 µM) and test system SISO (Cervical Carcinoma), the measured combination Emax is 0.421

Given the compound CC(=O)Nc1cccc(-n2c(=O)n(C3CC3)c(=O)c3c(Nc4ccc(I)cc4F)n(C)c(=O)c(C)c32)c1 [Trametinib] + Cc1nc(-c2cn3c(n2)-c2ccc(-c4cnn(C(C)(C)C(N)=O)c4)cc2OCC3)n(C(C)C)n1 [Taselisib] (first compound max 1 µM, 7x7, partner max 10 µM) and test system SISO (Cervical Carcinoma), the measured combination Emax is 0.447

----------
Listed compounds paired with reported combination Emax
test system: 8-MG-BA (Glioblastoma); assay: combination Emax (second highest fraction inhibited in the dose matrix, 72 h); higher = more inhibition; extreme values may be limits of the assay
Number, no unit, nothing else.

In the examples that follow, each entry is paired with its recorded combination Emax.
INSERT INTO measurements (compound, measured_property, reading) VALUES
  ('CN(C)CCCOc1ccc(-c2ccc3ncc4c(c3c2)n(C2CCOCC2)c(=O)n4C)cn1 [AZD0156] + C[C@@H]1COCCN1C2=NC(=NC(=C2)C3(CC3)[S@](=N)(=O)C)C4=C5C=CNC5=NC=C4 [AZD6738] (first compound max 1 µM, 7x7, partner max 10 µM)', 'combination Emax', 0.834),
  ('NC1(C(=O)N[C@@H](CCO)c2ccc(Cl)cc2)CCN(c2ncnc3[nH]ccc23)CC1 [Capivasertib] + C[C@@H]1COCCN1C2=NC(=NC(=C2)C3(CC3)[S@](=N)(=O)C)C4=C5C=CNC5=NC=C4 [AZD6738] (first compound max 10 µM, 7x7, partner max 10 µM)', 'combination Emax', 0.873),
  ('COc1cc2ncnc(Nc3ccc(F)c(Cl)c3)c2cc1OCCCN1CCOCC1 [Gefitinib] + CC(C)n1c(=O)n(C)c2cnc3cc(F)c(-c4ccc(OCCCN5CCCCC5)nc4)cc3c21 [AZD1390] (first compound max 10 µM, 7x7, partner max 0.3 µM)', 'combination Emax', 0.268);

Attention now turns to another entry.
Given item COc1cccc(OCCCN)c1-c1cc(Nc2cnc(C#N)cn2)n[nH]1 [Prexasertib] + CCc1c2c(nc3ccc(O)cc13)-c1cc3c(c(=O)n1C2)COC(=O)[C@]3(O)CC [SN-38] (first compound max 1 µM, 7x7, partner max 0.3 µM) , the value recorded as its combination Emax is 0.989
